Biological target: IGF1R (Homo sapiens)
Sequence (P08069 31-1367): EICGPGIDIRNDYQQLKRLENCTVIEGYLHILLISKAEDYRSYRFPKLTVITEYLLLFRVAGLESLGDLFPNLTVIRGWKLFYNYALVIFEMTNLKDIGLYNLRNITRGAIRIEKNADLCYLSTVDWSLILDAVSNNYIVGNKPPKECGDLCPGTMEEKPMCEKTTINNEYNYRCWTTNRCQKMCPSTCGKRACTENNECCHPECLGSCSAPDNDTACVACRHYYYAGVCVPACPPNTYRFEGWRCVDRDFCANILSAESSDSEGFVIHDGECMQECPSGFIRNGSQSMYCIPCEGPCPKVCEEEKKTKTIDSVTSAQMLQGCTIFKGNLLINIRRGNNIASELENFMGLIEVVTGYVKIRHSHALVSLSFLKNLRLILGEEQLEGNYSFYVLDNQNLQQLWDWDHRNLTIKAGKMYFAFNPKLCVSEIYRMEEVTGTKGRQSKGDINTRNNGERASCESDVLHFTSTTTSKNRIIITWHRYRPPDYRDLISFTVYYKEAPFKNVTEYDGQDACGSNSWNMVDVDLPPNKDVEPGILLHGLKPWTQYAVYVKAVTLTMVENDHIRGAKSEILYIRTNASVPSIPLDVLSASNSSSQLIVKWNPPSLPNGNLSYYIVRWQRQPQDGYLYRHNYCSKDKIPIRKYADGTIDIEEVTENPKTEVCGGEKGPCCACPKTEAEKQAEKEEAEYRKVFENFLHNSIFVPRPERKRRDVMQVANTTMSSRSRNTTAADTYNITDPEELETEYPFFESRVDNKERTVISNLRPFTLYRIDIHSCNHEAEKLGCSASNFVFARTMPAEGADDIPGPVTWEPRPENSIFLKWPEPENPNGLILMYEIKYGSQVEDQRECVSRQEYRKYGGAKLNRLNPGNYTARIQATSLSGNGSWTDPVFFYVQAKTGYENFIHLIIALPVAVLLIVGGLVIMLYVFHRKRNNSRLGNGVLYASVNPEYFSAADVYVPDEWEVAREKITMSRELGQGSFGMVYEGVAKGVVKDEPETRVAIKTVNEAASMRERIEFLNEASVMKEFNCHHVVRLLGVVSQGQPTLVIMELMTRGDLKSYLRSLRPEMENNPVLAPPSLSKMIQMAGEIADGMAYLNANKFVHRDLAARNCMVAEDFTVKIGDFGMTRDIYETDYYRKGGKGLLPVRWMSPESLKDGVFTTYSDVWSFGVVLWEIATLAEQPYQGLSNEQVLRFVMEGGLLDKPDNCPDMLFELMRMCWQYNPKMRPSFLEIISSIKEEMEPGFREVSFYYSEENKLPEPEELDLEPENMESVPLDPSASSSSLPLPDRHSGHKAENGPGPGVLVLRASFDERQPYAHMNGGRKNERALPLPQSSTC
endpointName: pIC50
Numbers only, as −log10 of the molar value.

pIC50 reading for `CC(C)=CC[C@@H](O)C1=CC(=O)c2c(O)ccc(O)c2C1=O` : 5.59
